- Substrate: NC(=O)C1=CN([C@@H]2O[C@H](COP(=O)(O)OP(=O)(O)OC[C@H]3O[C@@H](n4cnc5c(N)ncnc54)[C@H](OP(=O)(O)O)[C@@H]3O)[C@@H](O)[C@H]2O)C=CC1
- test_details: purified protein, by the assay type
- protocol_conditions: other: NADPH 6-300 μM, 10 mM methylglyoxal, pH 7.5, 37° C.
readout_type: kcat (s⁻¹)
Give bare numbers, in s⁻¹.

response.value for Escherichia coli MG1655 YqhD, native (wild type), SEQ ID NO: 56 (Escherichia coli K-12) (protein) MNNFNLHTPTRILFGKGAIAGLREQIPHDARVLITYGGGSVKKTGVLDQVLDALKGMDVLEFGGIEPNPAYETLMNAVKLVREQKVTFLLAVGGGSVLDGTKFIAAAANYPENIDPWHILQTGGKEIKSAIPMGCVLTLPATGSESNAGAVISRKTTGDKQAFHSAHVQPVFAVLDPVYTYTLPPRQVANGVVDAFVHTVEQYVTKPVDAKIQDRFAEGILLTLIEDGPKALKEPENYDVRANVMWAATQALNGLIGAGVPQDWATHMLGHELTAMHGLDHAQTLAIVLPALWNEKRDTKRAKLLQYAERVWNITEGSDDERIDAAIAATRNFFEQLGVPTHLSDYGLDGSSIPALLKKLEEHGMTQLGENHDITLDVSRRIYEAAR (field: kcat) = 2.1
